Record set of pEC50 for target or system Somatostatin receptor type 3 (Homo sapiens, UniProt P32745).
pEC50: −log10 of the molar value.

Example results:
1) c1cnc(-c2c[nH]c([C@H]3Cc4c([nH]c5ccccc45)[C@@H](C4CCOCC4)N3)n2)nc1    < 6.00
2) Cc1[nH]c([C@H]2Cc3c([nH]c4ccccc34)[C@@H](C3CCOCC3)N2)nc1-c1ccccc1    < 6.00

Consider now this further compound.
Note pEC50 for the compound shown: FC(F)(F)Oc1cccc(-c2c[nH]c([C@H]3Cc4c([nH]c5ccccc45)[C@@H](C4CCOCC4)N3)n2)c1
< 6.00

---

molecular target: Somatostatin receptor type 3 (Homo sapiens, UniProt P32745)
Sequence (P32745 whole entry): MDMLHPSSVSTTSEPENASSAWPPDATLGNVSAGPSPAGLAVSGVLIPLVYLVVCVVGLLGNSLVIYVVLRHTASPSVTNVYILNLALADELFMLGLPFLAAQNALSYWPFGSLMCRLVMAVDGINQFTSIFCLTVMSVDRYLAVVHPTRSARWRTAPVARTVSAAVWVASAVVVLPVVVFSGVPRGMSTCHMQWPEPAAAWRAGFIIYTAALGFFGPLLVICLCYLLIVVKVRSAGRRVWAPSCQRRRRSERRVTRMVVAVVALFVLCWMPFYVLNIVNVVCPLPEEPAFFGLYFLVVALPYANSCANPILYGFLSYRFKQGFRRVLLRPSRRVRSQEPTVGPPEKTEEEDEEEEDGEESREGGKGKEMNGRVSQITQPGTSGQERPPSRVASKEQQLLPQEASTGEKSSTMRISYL
Property: IC50; scope: individual compounds

Example results:
1. Fc1ccc(-c2n[nH]c([C@H]3Cc4c([nH]c5ccccc45)[C@@H](C4CCOCC4)N3)n2)cc1    282 nM
2. Cc1nc([C@]2(c3cnn(C)c3)N[C@@H](c3nc(-c4ccccc4)c[nH]3)Cc3c2[nH]c2ccccc32)no1    1.4 nM
3. COc1cccc(-c2c[nH]c([C@H]3Cc4c([nH]c5ccccc45)[C@@H](C4CCOCC4)N3)n2)n1    8 nM
4. c1ccc2c3c([nH]c2c1)[C@@H](C1CCOCC1)N[C@@H](c1nc(-c2csc4ccccc24)c[nH]1)C3    10 nM
5. c1cnc(-c2c[nH]c([C@H]3Cc4c([nH]c5ccccc45)[C@@H](C4CCOCC4)N3)n2)nc1    > 1330 nM
6. c1ccc2c3c([nH]c2c1)[C@@H](C1CCOCC1)N[C@@H](c1nc(-c2nccs2)c[nH]1)C3    > 1330 nM

Consider now this further compound.
Note IC50 for the compound shown: O=C(O)c1cccc(-c2c[nH]c([C@H]3Cc4c([nH]c5ccccc45)[C@@H](C4CCOCC4)N3)n2)c1
> 1330 nM
